assay: Approximate solubility, solvent addition method; format: physicochemical; conditions: 2-Butanone; ambient temperature
Where a SMILES comes first, the peptide text is derived from it.
Property: solubility

Query: Given CC(C)CC(NC(=O)C(N)Cc1ccccc1)C(=O)N1CCCC1C(=O)NC(CO)C(=O)O (stereo not shown) [SEQ ID NO: 1] (H-FLPS-OH; configuration not given here) , respond with its solubility.
Response: ≥ 20 mg/mL

* * *

assay: Approximate solubility, solvent addition method; type: physicochemical; details: 1-Butanol; ambient temperature
Where a SMILES comes first, the peptide text is derived from it.
Property: solubility

Query: Given CC(C)CC(NC(=O)C(N)Cc1ccccc1)C(=O)N1CCCC1C(=O)NC(CO)C(=O)O (stereo not shown) [SEQ ID NO: 1] (H-FLPS-OH; configuration not given here) , respond with its solubility.
Response: ≥ 43 mg/mL

The measurements presented in this section are drawn from patent US8217141B2.
